# CK1a Ymin listing for each entry below
Tgt: CK1α (Homo sapiens, UniProt P48729+Q96SW2)
Construct: expressed in transfected cells; host or cells: MDS-L
Sequence (P48729 whole entry): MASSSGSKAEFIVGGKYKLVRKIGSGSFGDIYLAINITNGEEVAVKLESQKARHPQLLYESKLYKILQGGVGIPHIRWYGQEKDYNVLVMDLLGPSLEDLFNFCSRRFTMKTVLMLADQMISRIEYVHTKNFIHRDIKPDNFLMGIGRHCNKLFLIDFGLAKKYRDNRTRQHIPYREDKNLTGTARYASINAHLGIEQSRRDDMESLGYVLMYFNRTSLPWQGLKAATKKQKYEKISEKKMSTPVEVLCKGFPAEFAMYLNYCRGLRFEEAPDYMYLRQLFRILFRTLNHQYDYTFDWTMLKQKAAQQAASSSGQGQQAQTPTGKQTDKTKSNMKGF
Sequence (Q96SW2 whole entry): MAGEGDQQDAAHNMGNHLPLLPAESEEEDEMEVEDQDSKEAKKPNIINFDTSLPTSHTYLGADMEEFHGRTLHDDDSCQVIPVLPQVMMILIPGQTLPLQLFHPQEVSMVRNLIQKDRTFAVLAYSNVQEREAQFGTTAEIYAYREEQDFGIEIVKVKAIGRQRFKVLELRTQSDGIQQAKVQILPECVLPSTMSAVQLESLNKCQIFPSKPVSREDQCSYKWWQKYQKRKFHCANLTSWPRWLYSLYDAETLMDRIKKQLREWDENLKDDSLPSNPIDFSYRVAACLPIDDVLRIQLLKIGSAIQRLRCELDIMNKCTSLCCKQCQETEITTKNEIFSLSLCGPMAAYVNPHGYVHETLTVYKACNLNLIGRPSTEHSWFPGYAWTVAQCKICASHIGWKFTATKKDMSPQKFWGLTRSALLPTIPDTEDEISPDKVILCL
Sequence (Q16531 whole entry partner): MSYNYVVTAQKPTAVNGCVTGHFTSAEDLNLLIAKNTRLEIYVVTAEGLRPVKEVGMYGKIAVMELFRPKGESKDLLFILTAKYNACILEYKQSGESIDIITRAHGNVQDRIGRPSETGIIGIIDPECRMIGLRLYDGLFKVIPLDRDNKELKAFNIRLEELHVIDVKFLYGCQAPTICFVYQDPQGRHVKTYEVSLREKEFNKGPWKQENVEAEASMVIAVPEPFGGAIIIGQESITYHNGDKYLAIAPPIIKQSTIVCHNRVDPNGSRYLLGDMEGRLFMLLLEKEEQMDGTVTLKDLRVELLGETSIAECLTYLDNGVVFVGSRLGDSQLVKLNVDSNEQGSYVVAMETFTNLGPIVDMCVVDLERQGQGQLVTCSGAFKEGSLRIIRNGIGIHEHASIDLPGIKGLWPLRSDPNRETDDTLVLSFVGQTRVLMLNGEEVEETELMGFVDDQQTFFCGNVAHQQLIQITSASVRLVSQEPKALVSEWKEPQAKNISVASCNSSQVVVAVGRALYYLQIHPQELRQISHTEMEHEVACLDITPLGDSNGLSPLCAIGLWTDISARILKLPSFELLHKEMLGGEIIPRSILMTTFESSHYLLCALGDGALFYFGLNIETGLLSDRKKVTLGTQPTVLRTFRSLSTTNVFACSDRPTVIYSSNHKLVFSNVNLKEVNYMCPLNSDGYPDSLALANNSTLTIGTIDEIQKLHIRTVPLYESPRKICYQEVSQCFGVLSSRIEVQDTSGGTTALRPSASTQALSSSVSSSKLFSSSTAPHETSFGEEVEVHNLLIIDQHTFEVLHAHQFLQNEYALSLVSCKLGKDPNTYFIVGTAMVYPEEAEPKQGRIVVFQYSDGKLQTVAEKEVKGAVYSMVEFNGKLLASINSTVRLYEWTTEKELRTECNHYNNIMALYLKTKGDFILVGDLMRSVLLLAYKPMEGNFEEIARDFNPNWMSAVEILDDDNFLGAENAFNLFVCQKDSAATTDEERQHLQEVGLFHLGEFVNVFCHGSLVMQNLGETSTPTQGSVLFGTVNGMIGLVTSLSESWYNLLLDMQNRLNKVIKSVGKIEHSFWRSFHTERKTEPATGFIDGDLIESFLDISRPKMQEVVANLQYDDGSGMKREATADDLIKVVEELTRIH
Experiment summary: ePL degradation assay, MDS-L/CK1α ePL OE_GSPT1G575N OE cells
Format: cell-based
Assay conditions: depth of degradation (100% = no reduction, 0% = complete degradation), 4 hr, N ≥ 3
Unit % implied. Number only.

Read the entry O=C1CCC(N2Cc3c(cccc3[C@H]3C[C@@]3(C(=O)OCC(Cl)(Cl)Cl)c3ccc(Br)cc3)C2=O)C(=O)N1 (stereo partly shown) [Compound 13b] and write its reported CK1a Ymin.
90

New cases:
Read the entry O=C1CCC(N2Cc3cc(C4=C[C@]4(C(=O)OCC(Cl)(Cl)Cl)c4ccc(Br)cc4)ccc3C2=O)C(=O)N1 (stereo partly shown) [Compound 21a] and write its reported CK1a Ymin.
89

Read the entry O=C1CCC(N2Cc3cc(C4=C[C@@]4(C(=O)OCC(Cl)(Cl)Cl)c4ccc(Br)cc4)ccc3C2=O)C(=O)N1 (stereo partly shown) [Compound 21b] and write its reported CK1a Ymin.
57

Read the entry O=C1CCC(N2Cc3c(cccc3C3=C[C@]3(C(=O)OCC(Cl)(Cl)Cl)c3ccc(Br)cc3)C2=O)C(=O)N1 (stereo partly shown) [Compound 19a] and write its reported CK1a Ymin.
64

Read the entry O=C1CCC(N2C(=O)c3ccc(C4=C[C@]4(C(=O)OCC(Cl)(Cl)Cl)c4ccc(Br)cc4)cc3C2=O)C(=O)N1 (stereo partly shown) [Compound 22a] and write its reported CK1a Ymin.
60

Read the entry O=C1CCC(N2C(=O)c3cccc(C4=C[C@@]4(C(=O)OCC(Cl)(Cl)Cl)c4ccc(Br)cc4)c3C2=O)C(=O)N1 (stereo partly shown) [Compound 20b] and write its reported CK1a Ymin.
54

Read the entry O=C1CCC(N2Cc3c(cccc3C3=C[C@@]3(C(=O)OCC(Cl)(Cl)Cl)c3ccc(Br)cc3)C2=O)C(=O)N1 (stereo partly shown) [Compound 19b] and write its reported CK1a Ymin.
60

Read the entry O=C1CCC(N2C(=O)c3cccc(C4=C[C@]4(C(=O)OCC(Cl)(Cl)Cl)c4ccc(Br)cc4)c3C2=O)C(=O)N1 (stereo partly shown) [Compound 20a] and write its reported CK1a Ymin.
56

Read the entry O=C1CCC(N2Cc3cccc([C@H]4C[C@@]4(C(=O)OCC(Cl)(Cl)Cl)c4ccc(Br)cc4)c3C2=O)C(=O)N1 (stereo partly shown) [Compound 18b] and write its reported CK1a Ymin.
91

Read the entry O=C1CCC(N2Cc3cccc([C@@H]4C[C@]4(C(=O)OCC(Cl)(Cl)Cl)c4ccc(Br)cc4)c3C2=O)C(=O)N1 (stereo partly shown) [Compound 18a] and write its reported CK1a Ymin.
89

Read the entry O=C1CCC(N2Cc3cccc(C4=C[C@@]4(C(=O)OCC(Cl)(Cl)Cl)c4ccc(Br)cc4)c3C2=O)C(=O)N1 (stereo partly shown) [Compound 24b] and write its reported CK1a Ymin.
93

Read the entry O=C1CCC(N2Cc3ccc(C4=C[C@@]4(C(=O)OCC(Cl)(Cl)Cl)c4ccc(Br)cc4)cc3C2=O)C(=O)N1 (stereo partly shown) [Compound 23b] and write its reported CK1a Ymin.
95

Read the entry O=C1CCC(N2Cc3ccc(C4=C[C@]4(C(=O)OCC(Cl)(Cl)Cl)c4ccc(Br)cc4)cc3C2=O)C(=O)N1 (stereo partly shown) [Compound 23a] and write its reported CK1a Ymin.
93
